Hey, just so you know, these numbers are from patent US20250215029A1.

# TESTED TARGET: pY705-STAT3 in PBMC (Homo sapiens)
# Construct: Cryopreserved Peripheral Blood Mononuclear Cells (PBMC) are from AllCells; host or cells: cryopreserved PBMC
# Sequence (P40763 whole entry): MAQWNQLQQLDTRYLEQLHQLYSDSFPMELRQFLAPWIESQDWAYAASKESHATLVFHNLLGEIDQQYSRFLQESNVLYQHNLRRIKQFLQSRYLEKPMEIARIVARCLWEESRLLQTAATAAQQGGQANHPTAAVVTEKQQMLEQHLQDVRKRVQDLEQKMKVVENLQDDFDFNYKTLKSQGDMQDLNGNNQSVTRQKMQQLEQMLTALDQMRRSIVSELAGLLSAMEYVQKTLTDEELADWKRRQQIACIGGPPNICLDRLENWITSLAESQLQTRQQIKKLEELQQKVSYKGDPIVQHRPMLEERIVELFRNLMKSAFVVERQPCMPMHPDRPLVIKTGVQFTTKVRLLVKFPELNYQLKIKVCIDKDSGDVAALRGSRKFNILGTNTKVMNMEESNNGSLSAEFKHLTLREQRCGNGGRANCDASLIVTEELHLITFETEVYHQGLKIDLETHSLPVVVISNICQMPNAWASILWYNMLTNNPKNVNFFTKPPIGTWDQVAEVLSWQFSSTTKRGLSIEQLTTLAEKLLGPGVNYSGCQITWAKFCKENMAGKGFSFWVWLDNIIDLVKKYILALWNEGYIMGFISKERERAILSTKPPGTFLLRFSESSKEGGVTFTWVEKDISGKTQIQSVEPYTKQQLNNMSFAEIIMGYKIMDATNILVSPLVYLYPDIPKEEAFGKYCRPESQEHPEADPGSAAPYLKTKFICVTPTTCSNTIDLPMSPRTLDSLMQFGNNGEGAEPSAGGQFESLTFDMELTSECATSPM
# ASSAY NOTES: MSD-pSTAT-PBMC Assay (pSTAT3, IL-6 stimulated)
# Format: cell-based
# SETTINGS: PBMC, compound 3 hrs, then 10 ng/mL IL-6 for 10 min; Table 115; read-out: STAT3
RECORDED METRIC: IC50

Here are 8 compounds together with their reported answers.
COMPOUND	MEASURED RESULT
CCCOC(=O)[C@H](C)NP(=O)(Oc1ccccc1)[C@H](F)c1ccc2sc(C(=O)N[C@H]3CCC[C@H]4CC[C@@H](C(=O)N5CC(c6cnccc6N6CCOCC6)C5)N4C3=O)cc2c1 (stereo partly shown) [Compound 1065]	< 100 nM
CC(C)(C)C(=O)SCCOP(=O)(OCCSC(=O)C(C)(C)C)C(F)c1ccc2sc(C(=O)N[C@H]3CCC[C@H]4CC[C@@H](C(=O)N5CC(c6cnccc6F)C5)N4C3=O)cc2c1 (stereo partly shown) [Compound 984]	< 100 nM
CC(C)(C)C(=O)SCCOP(=O)(OCCSC(=O)C(C)(C)C)C(F)(F)c1ccc2sc(C(=O)N[C@H]3CCC[C@H]4CC[C@@H](C(=O)NCc5cnc6[nH]cnc6c5)N4C3=O)cc2c1 [Compound 1002]	< 100 nM
CCCCOC(=O)[C@H](C)NP(=O)(Oc1cccc2ccccc12)C(F)(F)c1ccc2sc(C(=O)N[C@H]3CCC[C@H]4CC[C@@H](C(=O)N5CC(c6cccnc6)C5)N4C3=O)cc2c1 (stereo partly shown) [Compound 971]	1000 to 3000 nM
C[C@H](NP(=O)(Cc1ccc2sc(C(=O)N[C@H]3CCC[C@H]4CC[C@@H](C(=O)N5CC(c6cccnc6)C5)N4C3=O)cc2c1)Oc1ccccc1)C(=O)OCc1ccccc1 (stereo partly shown) [Compound 394]	< 100 nM
C[C@H](NP(=O)(Cc1ccc2sc(C(=O)N[C@H]3CCC[C@H]4CC[C@@H](C(=O)N5CC(c6cccnc6)C5)N4C3=O)cc2c1)Oc1ccccc1)C(=O)OCCC(F)(F)F (stereo partly shown) [Compound 291]	< 100 nM
CCCOC(=O)[C@H](C)N[P@](=O)(Oc1ccccc1)[C@@H](F)c1ccc2sc(C(=O)N[C@H]3CCC[C@H]4CC[C@@H](C(=O)N5CC(c6cnccc6N(C)C)C5)N4C3=O)cc2c1 (single isomer, unassigned) [Compound 941]	< 100 nM
CC(C)(C)C(=O)SCCOP(=O)(OCCSC(=O)C(C)(C)C)C(F)(F)c1ccc2sc(C(=O)N[C@H]3CCC[C@H]4CC[C@@H](C(=O)N5CC(c6ncccn6)C5)N4C3=O)cc2c1 [Compound 962]	< 100 nM

Any idea what its IC50 is? The compound is CC(C)CC(=O)SCCOP(=O)(OCCSC(=O)CC(C)C)[C@@H](F)c1ccc2sc(C(=O)N[C@H]3CCC[C@H]4CC[C@@H](C(=O)N5CC(c6cccnc6)C5)N4C3=O)cc2c1 [Compound 1089]
< 100 nM

Record: CCOC(=O)[C@@H](NP(=O)(Cc1ccc2sc(C(=O)N[C@H]3CCC[C@H]4CC[C@@H](C(=O)N5CC(c6cccnc6)C5)N4C3=O)cc2c1)Oc1ccccc1)C(C)C (stereo partly shown) [Compound 949]
1000 to 3000 nM

Next entry: CCCOC(=O)[C@H](C)NP(=O)(Oc1ccccc1)C(F)c1ccc2sc(C(=O)N[C@H]3CCCC[C@H]4CC[C@@H](C(=O)N5CC(OCCOC)(c6cccnc6)C5)N4C3=O)cc2c1 (stereo partly shown) [Compound 995]
< 100 nM

Item: CCCOC(=O)[C@H](C)NP(=O)(Cc1ccc2sc(C(=O)N[C@H]3CCC[C@H]4CC[C@@H](C(=O)N5CC(c6cccnc6)C5)N4C3=O)cc2c1)OCC(C)(F)F (stereo partly shown) [Compound 437]
100 to 1000 nM

How about CCCOC(=O)[C@H](C)NP(=O)(Cc1ccc2sc(C(=O)N[C@H]3CCCC[C@H]4CC[C@@H](C(=O)N5CCC(c6cccnc6)C5)N4C3=O)cc2c1)Oc1ccccc1 (stereo partly shown) [Compound 253] ?
> 3000 nM

Moving on to COc1ccncc1C1CN(C(=O)[C@@H]2CC[C@@H]3CCC[C@H](NC(=O)c4cc5cc([C@@H](F)[P@@](=O)(N[C@@H](C)C(=O)OC(C)C)Oc6ccccc6)ccc5s4)C(=O)N32)C1 (single isomer, unassigned) [Compound 1053]
< 100 nM
